experiment: Biodistribution of 177Lu-labeled αMSH analogues in mice bearing B16F10 mouse melanoma; format: in vivo, C57BL/6J mice; settings: mouse, tumour/kidney, iv, total radioactivity; 120 h p.i., C57BL/6J mice, B16F10 melanoma; read-out: Tumour/kidney
Readout Name: tissue to tissue ratio at 120 h

>>> readout_value("CCCC[C@H](NC(=O)CN1CCC(NC(=O)[C@H](CCCCNC(=O)CN2CCN(CC(=O)O)CCN(CC(=O)O)CCN(CC(=O)O)CC2)NC(=O)[C@H](CCC(=O)O)NC(=O)CCCc2ccc(I)cc2)CC1)C(=O)N[C@H]1CC(=O)NCCCC[C@@H](C(N)=O)N(C)C(=O)[C@H](Cc2c[nH]c3ccccc23)N(C)C(=O)[C@H](CCCNC(=N)N)N(C)C(=O)[C@@H](Cc2ccccc2)NC(=O)[C@H](Cc2c[nH]cn2)N(C)C1=O [^177Lu-labeled CCZ01088, metal not drawn]")
0.45
>>> readout_value("CCCC[C@H](NC(=O)CN1CCC(NC(=O)[C@H](CCCCNC(=O)CN2CCN(CC(=O)O)CCN(CC(=O)O)CCN(CC(=O)O)CC2)NC(=O)[C@H](CCC(=O)O)NC(=O)CCCc2ccc(I)cc2)CC1)C(=O)N[C@H]1CC(=O)NCCCC[C@@H](C(N)=O)NC(=O)[C@H](Cc2c[nH]c3ccccc23)NC(=O)[C@H](CCCNC(=N)N)NC(=O)[C@@H](Cc2ccccc2)NC(=O)[C@H](Cc2c[nH]cn2)NC1=O [^177Lu-labeled CCZ01082, metal not drawn]")
0.42
>>> readout_value("CCCC[C@H](NC(=O)CN1CCC(NC(=O)CN2CCN(CC(=O)O)CCN(CC(=O)O)CCN(CC(=O)O)CC2)CC1)C(=O)N[C@H]1CC(=O)NCCCC[C@@H](C(N)=O)N(C)C(=O)[C@H](Cc2c[nH]c3ccccc23)NC(=O)[C@H](CCCNC(=N)N)N(C)C(=O)[C@@H](Cc2ccccc2)NC(=O)[C@H](Cc2c[nH]cn2)NC1=O [^177Lu-labeled CCZ01106, metal not drawn]")
1.44
>>> readout_value("CCCC[C@H](NC(=O)CN1CCC(NC(=O)CN2CCN(CC(=O)O)CCN(CC(=O)O)CCN(CC(=O)O)CC2)CC1)C(=O)N[C@H]1CC(=O)NCCCC[C@@H](C(N)=O)NC(=O)[C@H](Cc2c[nH]c3ccccc23)NC(=O)[C@H](CCCNC(=N)N)NC(=O)[C@@H](Cc2ccccc2)NC(=O)[C@H](Cc2c[nH]cn2)NC1=O [^177Lu-labeled CCZ01048, metal not drawn, reference compound]")
1.14
